Biological target: 15-hydroxyprostaglandin dehydrogenase [NAD(+)] (Homo sapiens)
Sequence (P15428 whole entry): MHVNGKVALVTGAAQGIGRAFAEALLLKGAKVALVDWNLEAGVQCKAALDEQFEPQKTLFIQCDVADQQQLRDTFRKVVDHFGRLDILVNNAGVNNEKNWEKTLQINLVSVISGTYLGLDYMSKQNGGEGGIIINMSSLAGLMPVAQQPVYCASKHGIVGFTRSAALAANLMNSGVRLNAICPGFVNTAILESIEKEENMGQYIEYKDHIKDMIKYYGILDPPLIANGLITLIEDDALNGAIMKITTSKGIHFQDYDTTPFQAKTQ
parameter: IC50

Looking for the measured IC50 of CCCCC(=O)c1sc2nc(-c3nccs3)ccc2c1N [US9790233, ID SW206992] , can you help? 1.41 nM
